- Test system: Vero E6 infected with SARS-CoV-2
- Test summary: inhibition of SARS-CoV-2 cytopathic effect; higher = more antiviral protection, active = above 15
- Test parameters: 100 nM; 48 h
Metric name: inhibition of SARS-CoV-2 cytopathic effect (%)
One number for each entry, in %.

Study these solved cases before continuing.
Compound	Unit string	Test value
NCCC(=O)N[C@@H](Cc1c[nH]cn1)C(=O)O [carnosine]	%	-2.85
CON [methoxyamine]	%	-0.44
CN1CCCN(C(c2ccccc2)c2ccc(Cl)cc2)CC1 (stereo not drawn) [homochlorcyclizine]	%	1.43
CNC(=O)c1cc2c(cn1)[nH]c1ccccc12	%	1.17
CN(C)[C@@H]1C(O)=C(C(N)=O)C(=O)[C@@]2(O)C(O)=C3C(=O)c4c(O)ccc(Cl)c4[C@@](C)(O)[C@H]3C[C@@H]12	%	0.73
Cc1cc(NC(=O)Nc2ccc(N(C)C)cc2)c2cc(F)cc(F)c2n1	%	1.66

I'm hoping you can list inhibition of SARS-CoV-2 cytopathic effect for every compound here, please.
1. CC(C)C[C@H](NC(=O)CNC(=O)[C@H](Cc1ccc(O)cc1)NC(=O)[C@H](CO)NC(=O)[C@H](Cc1c[nH]c2ccccc12)NC(=O)[C@H](Cc1cnc[nH]1)NC(=O)[C@@H]1CCC(=O)N1)C(=O)N[C@@H](CCCNC(=N)N)C(=O)N1CCC[C@H]1C(=O)NCC(N)=O [gonadorelin]
2. N.N.O=C([O-])C[O-].[Pt+2] [nedaplatin]

stdout:
[0.47, -0.64]
